Test: Natriuretic polypeptide receptor (hNpr1) antagonism - Pilot counterscreen GloSensor control cell line (AID 1347045)
Settings: HEK293 cGMP GloSensor cells, SNP-stimulated luminescence, 20 min; series mostly up to 38.3 µM
Results filed as inconclusive are left out. Calls of active or inactive are those of the source. Calls come from the whole dose curve.
Outcomes: active, inactive

>>> qualitative_label("CN(C)CCOC(=O)COc1ccc(Cl)cc1")
"inactive"
>>> qualitative_label("CCNC(=O)N1CCN(CCCC(c2ccc(F)cc2)c2ccc(F)cc2)CC1")
"active"
>>> qualitative_label("CN1CCN(CC(=O)N2c3ccccc3C(=O)Nc3cccnc32)CC1")
"inactive"
>>> qualitative_label("CCCCNc1ccc(C(=O)OCCN(C)C)cc1")
"inactive"
>>> qualitative_label("Nc1ncn([C@@H]2O[C@H](CO)[C@@H](O)[C@H]2O)c(=O)n1")
"inactive"
>>> qualitative_label("CC(C)(C)NCC(O)c1cc(O)cc(O)c1 (stereo not given)")
"inactive"
>>> qualitative_label("COc1ccc(CN(CCN(C)C)c2ccccn2)cc1")
"inactive"
>>> qualitative_label("C#CCN(C)CCCOc1ccc(Cl)cc1Cl")
"inactive"
>>> qualitative_label("CCN(CC)CCOCCOC(=O)C1(c2ccccc2)CCCC1")
"inactive"
>>> qualitative_label("FC(F)(F)c1ccccc1-n1ccnc1")
"inactive"
>>> qualitative_label("CCCN(CCC)C(=O)C(CCC(=O)O)NC(=O)c1ccccc1 (stereo not given)")
"inactive"
>>> qualitative_label("Cc1scc2c1N(C(=O)CN1CCN(C)CC1)c1ccccc1NC2=O")
"inactive"
>>> qualitative_label("C[C@@H](O)[C@H]1C(=O)N2C(C(=O)O)=C(SCCN=CN)C[C@H]12")
"inactive"
>>> qualitative_label("CN(C)CCN(Cc1cccs1)c1ccccn1")
"inactive"
>>> qualitative_label("NC(Cc1ccc(Cl)cc1)C(=O)O (stereo not given)")
"inactive"

====

Experiment: Primary qHTS for small molecule stabilizers of the endoplasmic reticulum resident proteome: Secreted ER Calcium Modulated Protein (SERCaMP) assay (AID 1508630)
Conditions: SH-SY5Y GLuc-SERCaMP (Gaussia luciferase released on ER calcium loss) secretion, thapsigargin, luminescence; series mostly up to 38.4 µM
From the text: Assay Provider: Brandon K. Harvey Ph.D. National Institute on Drug Abuse, National Institutes of Health, Baltimore, MD Endoplasmic reticulum (ER) dysregulation is associated with human pathologies including neurodegenerative, cardiovascular, muscular, and diabetic conditions. […] To identify such compounds, we performed a quantitative high-throughput screen (qHTS) using the SERCaMP assay, which monitors secretion of ER resident proteins triggered by calcium depletion. […]
Records with an inconclusive call do not appear. Active and inactive are the calls of the source. Calls come from the whole dose curve; as a rule, active = well fitted inhibition curve with a large enough effect; inconclusive = small, poorly fitted or top-dose-only effect; inactive = no such curve, though single readings can be large or run the other way.
Classes used: active, inactive

>>> qualitative_label("O=c1[nH]c(=O)n([C@H]2C[C@H](O)[C@@H](CO)O2)cc1Br")
"inactive"
>>> qualitative_label("CC(C)NNC(=O)c1ccncc1")
"inactive"
>>> qualitative_label("NC(N)=N/N=C/c1c(Cl)cccc1Cl")
"inactive"
>>> qualitative_label("Nc1nc(N)c2nc(-c3ccccc3)c(N)nc2n1")
"inactive"
>>> qualitative_label("C[C@]12CCC(=O)C=C1CC[C@@H]1[C@@H]2CC[C@@]2(C)[C@H]1CC[C@]2(O)C(=O)CO")
"inactive"
>>> qualitative_label("CCn1cc(C(=O)O)c(=O)c2cc3c(cc21)OCO3")
"inactive"
>>> qualitative_label("c1ccc2c(c1)CCCC2C1=NCCN1 (stereo unspecified)")
"inactive"
>>> qualitative_label("CCO/C([O-])=N/c1c[n+](N2CCOCC2)no1")
"inactive"
>>> qualitative_label("CCN(CC)CC(=O)Nc1c(C)cccc1C")
"inactive"
>>> qualitative_label("NC(=Nc1ccccc1)Nc1ccccc1")
"active"
>>> qualitative_label("CC(=O)Nc1nnc(S(N)(=O)=O)s1")
"inactive"
>>> qualitative_label("CCCCCN(CCCCC)C(=O)C(CCC(=O)O)NC(=O)c1ccc(Cl)c(Cl)c1 (stereo unspecified)")
"inactive"
>>> qualitative_label("CCN1CCC[C@H]1CNC(=O)c1c(O)c(Cl)cc(Cl)c1OC")
"inactive"
>>> qualitative_label("CNC1(C)C2CCC(C2)C1(C)C (stereo unspecified)")
"inactive"
>>> qualitative_label("CC(C)(C)NCC(O)c1cc(O)cc(O)c1 (stereo unspecified)")
"inactive"
>>> qualitative_label("CCOC(=O)c1cnc2c(cnn2CC)c1NN=C(C)C")
"inactive"

====

Assay: Cell Viability - SK-N-SH (AID 435);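 note: potency is the fitted concentration of half-maximal effect; compound exposure lasted 40 h at 37 °C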
Conditions: SK-N-SH neuroblastoma cell viability qHTS
Results filed as inconclusive are left out. Calls of active or inactive are those of the source. The call rests on the fitted dose curve.
The compounds listed here are annotated with their Potency.
MEASUREMENT_KIND: Potency

>>> meas_value("COC(=O)[C@H]1[C@H]2C[C@@H]3c4[nH]c5cc(OC)ccc5c4CCN3C[C@H]2C[C@@H](OC(=O)c2cc(OC)c(OC)c(OC)c2)[C@@H]1OC")
"46.3 µM (active)"
>>> meas_value("CN=C(NC#N)NCCSCc1nc[nH]c1C")
"> 92 µM (inactive)"
>>> meas_value("O=c1[nH]c(=O)n([C@H]2C[C@H](O)[C@@H](CO)O2)cc1Br")
"> 92 µM (inactive)"

====

Assay: High Content Imaging Cell-Based qHTS for Inhibitors of the mTORC1 Signaling Pathway in MEF Cells (AID 2667);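 note: Tsc2-/- p53-/- MEFs stably re-expressing wild-type Tsc2 exposed 24 h; plate controls were DMSO wells for no effect and rapamycin control wells for full effect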
Details: series mostly up to 38.3 µM
Inconclusive results are not listed. Active and inactive are the calls of the source. The call rests on the fitted dose curve; in most records, active means well fitted inhibition curve with a large enough effect; inconclusive means small, poorly fitted or top-dose-only effect, or effect the other way; inactive means no such curve, though single readings can be large or run the other way.
MEASUREMENT_KIND: outcome

>>> meas_value("CN(C)C(=O)Oc1cccc([N+](C)(C)C)c1")
"inactive"
>>> meas_value("CN(C)CCOC(=O)COc1ccc(Cl)cc1")
"inactive"
>>> meas_value("O=C(CCNNC(=O)c1ccncc1)NCc1ccccc1")
"inactive"

====

Tested on: CRL-7250
Test: Cytotoxic Profiling of Annotated Libraries Using Quantitative High-Throughput Screening (AID 1296008); note: % is set by controls: 0 for no effect and ±100 for the full control effect; nearly all actives have a fitted effect of over 60% in size
Conditions: Five cell lines viability, CellTiter-Glo ATP luminescence, 48-72 h; stronger effect = lower value
Procedure: Cell-based phenotypic screening is a commonly used approach to discover biological pathways, novel drug targets, chemical probes and high-quality hit-to-lead molecules. […] A pintool (Kalypsys) was used to transfer 23 nL of compound solution to the 1536-well assay plates. […] Plates were left at room temperature for 10 min before imaging the ATP-coupled luminescence using a ViewLux microplate imager (PerkinElmer, Waltham, MA).
Results filed as inconclusive are left out.
MEASUREMENT_KIND: max response (%)

>>> meas_value("C[C@]12CCC(=O)C=C1CC[C@@H]1[C@@H]2CC[C@@]2(C)[C@H]1CC[C@]2(O)C(=O)CO")
-9.98
>>> meas_value("CCCNC(C)C(=O)Nc1ccccc1C (stereo not drawn)")
-2.89
>>> meas_value("CCCOc1ccccc1-c1nc2n[nH]nc2c(=O)[nH]1")
-0.525
>>> meas_value("CN(C)CCCN1c2ccccc2Sc2ccccc21")
0.274
>>> meas_value("CCN(Cc1ccncc1)C(=O)C(CO)c1ccccc1 (stereo not drawn)")
-20.8
>>> meas_value("Nc1nc(N)c2nc(-c3ccccc3)c(N)nc2n1")
-19.7
>>> meas_value("NC(N)=NC(=O)Cc1c(Cl)cccc1Cl")
-2.41
>>> meas_value("CC(C)[N+](C)(CCOC(=O)C1c2ccccc2Oc2ccccc21)C(C)C")
-3.69

====

System: Dd2
Experiment: qHTS profiling for inhibitors of Plasmodium falciparum proliferation (AID 504749); note: nearly all actives have a fitted effect of over 60% in size
Settings: P. falciparum in erythrocytes, SYBR Green DNA, 72 h; series mostly up to 28.7 µM
Inconclusive results are not listed. Active and inactive are the calls of the source. Calls come from the whole dose curve; as a rule, active = well fitted inhibition curve with a large enough effect; inconclusive = small, poorly fitted or top-dose-only effect; inactive = flat fitted curve, though single readings scatter.
Outcomes: true (active), false (inactive)

>>> qualitative_label("CCN1CCc2nc(N)oc2CC1")
"false"
>>> qualitative_label("CCN(CC)CCNC(=O)c1cc(S(C)(=O)=O)ccc1OC")
"false"
>>> qualitative_label("NC(=O)c1cn(Cc2c(F)cccc2F)nn1")
"false"
>>> qualitative_label("CC(C(=O)O)c1ccc(CC2CCCC2=O)cc1 (stereo not drawn)")
"false"
>>> qualitative_label("COc1ccc(CCN(C)CCCC(C#N)(c2cc(OC)c(OC)c(OC)c2)C(C)C)cc1OC (stereo not drawn)")
"true"
>>> qualitative_label("CN(C)CC/C=C1\\c2ccccc2COc2ccccc21")
"true"
>>> qualitative_label("COCC(=O)O[C@]1(CCN(C)CCCc2nc3ccccc3[nH]2)CCc2cc(F)ccc2[C@@H]1C(C)C")
"true"
>>> qualitative_label("CCCN(CCC)CCc1cccc2c1CC(=O)N2")
"false"
>>> qualitative_label("NC(=O)N1c2ccccc2C=Cc2ccccc21")
"false"
>>> qualitative_label("CCCCOCCOCCOCc1cc2c(cc1CCC)OCO2")
"false"
>>> qualitative_label("CCOC(=O)C1=C(C)NC(C)=C(C(=O)OC)C1c1cccc(Cl)c1Cl (stereo not drawn)")
"false"
>>> qualitative_label("COc1ccc([C@@H]2Sc3ccccc3N(CCN(C)C)C(=O)[C@@H]2OC(C)=O)cc1")
"false"
>>> qualitative_label("O=c1[nH]c(=O)n([C@H]2C[C@H](O)[C@@H](CO)O2)cc1Br")
"false"
>>> qualitative_label("C[N+](C)(C)CCOC(=O)CCC(=O)OCC[N+](C)(C)C")
"false"
>>> qualitative_label("O=C(CCCN1CCC(O)(c2cccc(C(F)(F)F)c2)CC1)c1ccc(F)cc1")
"true"
>>> qualitative_label("c1cnc(N2CCN(Cc3ccc4c(c3)OCO4)CC2)nc1")
"false"
>>> qualitative_label("O=C1NCN(c2ccccc2)C12CCN(CCCC(c1ccc(F)cc1)c1ccc(F)cc1)CC2")
"true"
>>> qualitative_label("C[N+](C)(C)CCCCCCCCCC[N+](C)(C)C")
"true"
